- assayed_system: UniProt:Q9NYK1
- test_name: TLR7 inhibition reporter assay (HEK-Blue SEAP)
- stated_conditions: HEK-Blue cells overexpressing human TLR7, gardiquimod 7.5 μM stimulation
measured_property: log10 of IC50 (log10 of the value in nM)
Hi team, quick reminder: these entries are log10 of IC50 (nM).

Consider the following illustrative entries.
compound: Cc1c(N2CCC(NCC(C)(C)O)CC2)ncc2[nH]c(-c3cc(C)c4ncnn4c3)c(C(C)C)c12
experimental_result: -0.34

compound: CCN1CC2(C1)CN(c1ncc3[nH]c(-c4cn5ncnc5c(C)c4C)c(C(C)C)c3c1F)C2
experimental_result: 1.20

compound: Cc1cc(-c2[nH]c3cnc(C4CCC(NC5CCOCC5)CC4)c(F)c3c2C(C)C)cn2ncnc12 (stereo not shown) [Example 82]
experimental_result: -0.74

compound: COc1cc(-c2[nH]c3cnc(C4CCN(C(=O)CN(C)C)CC4)cc3c2C(C)C)cn2ncnc12
experimental_result: 1.45

In plain terms, COc1cc(-c2[nH]c3cnc(C4CCC(NCC(C)(C)C)CC4)c(F)c3c2C(C)C)cn2ncnc12 (stereo not shown) [Example 229] has a documented log10 of IC50 of 0.94

In plain terms, "COc1cc(-c2[nH]c3cnc(C4CCN(CC(=O)N(C)C)CC4)c(F)c3c2C(C)C)cn2ncnc12" has a documented log10 of IC50 of 0.40

In plain terms, "COc1cc(-c2[nH]c3cnc(N4CCN(C(C)C)CC4)c(F)c3c2C(C)C)cn2ncnc12" has a documented log10 of IC50 of -0.02

====

Each entry below carries its recorded IC50.
- assayed_system: human TLR7 (Homo sapiens (Human), UniProt Q9NYK1)
- Sequence (Q9NYK1 27-1049): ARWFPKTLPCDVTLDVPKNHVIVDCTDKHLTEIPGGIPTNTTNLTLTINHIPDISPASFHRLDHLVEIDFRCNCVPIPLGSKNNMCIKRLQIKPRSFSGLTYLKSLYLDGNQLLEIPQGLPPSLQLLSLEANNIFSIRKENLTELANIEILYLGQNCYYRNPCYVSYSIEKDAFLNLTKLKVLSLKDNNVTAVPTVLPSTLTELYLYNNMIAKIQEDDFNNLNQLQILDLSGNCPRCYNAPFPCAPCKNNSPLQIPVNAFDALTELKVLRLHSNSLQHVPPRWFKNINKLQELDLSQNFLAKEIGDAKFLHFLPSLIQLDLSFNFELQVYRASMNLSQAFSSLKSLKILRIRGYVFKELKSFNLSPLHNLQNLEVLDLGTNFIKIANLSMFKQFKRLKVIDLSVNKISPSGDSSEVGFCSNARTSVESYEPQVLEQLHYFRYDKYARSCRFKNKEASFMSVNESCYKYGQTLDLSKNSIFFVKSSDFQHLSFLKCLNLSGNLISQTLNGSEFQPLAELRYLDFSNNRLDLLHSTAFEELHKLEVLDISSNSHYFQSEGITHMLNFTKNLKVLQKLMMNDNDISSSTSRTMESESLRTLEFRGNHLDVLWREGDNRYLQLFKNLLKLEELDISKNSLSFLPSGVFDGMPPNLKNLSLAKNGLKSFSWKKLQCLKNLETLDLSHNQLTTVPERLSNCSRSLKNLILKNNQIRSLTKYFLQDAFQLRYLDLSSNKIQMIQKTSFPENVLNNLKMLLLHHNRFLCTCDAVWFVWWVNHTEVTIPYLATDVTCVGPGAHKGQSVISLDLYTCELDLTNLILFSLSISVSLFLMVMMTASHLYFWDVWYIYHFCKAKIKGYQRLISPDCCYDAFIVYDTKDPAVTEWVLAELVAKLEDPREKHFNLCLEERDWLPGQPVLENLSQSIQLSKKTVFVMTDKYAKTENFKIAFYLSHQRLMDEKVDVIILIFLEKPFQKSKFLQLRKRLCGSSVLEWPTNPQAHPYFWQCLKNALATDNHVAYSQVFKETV
- test_name: TLR7 inhibition reporter assay (HEK-Blue SEAP)
- stated_conditions: HEK-Blue cells overexpressing human TLR7, gardiquimod 7.5 μM stimulation
Your answer should be a plain number; it is taken to be in nM.

Consider the following illustrative entries.
molecule: Cc1c(-c2[nH]c3cnc(N4CCN(CC(=O)N(C)C)CC4)c(C)c3c2C(C)C)cn2ncnc2c1C [Example 352]
u: nM
IC50: 14
--
molecule: Cc1c(-c2[nH]c3cnc(N4CCN(C5CCOCC5)CC4)c(F)c3c2C(C)C)cn2ncnc2c1C [Example 431]
u: nM
IC50: 3.5
--
molecule: COc1cc(-c2[nH]c3cnc(N4CCC(N5CCC5)CC4)c(F)c3c2C(C)C)cn2ncnc12 [Example 253]
u: nM
IC50: 0.97
--
molecule: CNC(=O)CN(C)C1CCC(c2ncc3[nH]c(-c4cc(OC)c5ncnn5c4)c(C(C)C)c3c2F)CC1 (stereo not drawn) [Example 131]
u: nM
IC50: 5
--
molecule: CCN(C)C1CCN(c2ncc3[nH]c(-c4cc(OC)c5ncnn5c4)c(C(C)C)c3c2F)CC1 [Example 102]
u: nM
IC50: 0.34
--
molecule: Cc1c(-c2[nH]c3cnc(N4CCN(CC5CC5)C[C@H]4C)c(F)c3c2C(C)C)cn2ncnc2c1C [Example 459]
u: nM
IC50: 1.6
--
molecule: COc1cc(-c2[nH]c3cnc(N4CC5(C4)CN(C4CCOCC4)C5)c(F)c3c2C(C)C)cn2ncnc12 [Example 370]
u: nM
IC50: 19
--
molecule: CCCN1CC2(C1)CN(c1ncc3[nH]c(-c4cc(OC)c5ncnn5c4)c(C(C)C)c3c1F)C2 [Example 380]
u: nM
IC50: 5.6

In plain terms, Cc1c(-c2[nH]c3cnc(N4CC5(CN(C)C5)C4)c(F)c3c2C(C)C)cn2ncnc2c1C [Example 407] has a documented IC50 of 47

In plain terms, CCN(C)C1CCC(c2ncc3[nH]c(-c4cc(C)c5ncnn5c4)c(C(C)C)c3c2F)CC1 (stereo not drawn) [Example 163] has a documented IC50 of 0.39

In plain terms, COc1cc(-c2[nH]c3cnc(C4CCC(N(CC#N)C5COC5)CC4)c(F)c3c2C(C)C)cn2ncnc12 (stereo not drawn) [Example 114] has a documented IC50 of 4.8

In plain terms, CNCC(=O)N1CCC(c2ncc3[nH]c(-c4cc(C)c5ncnn5c4)c(C(C)C)c3c2F)CC1 [Example 39] has a documented IC50 of 6.4

In plain terms, CNCC(=O)N1CCN(c2ncc3[nH]c(-c4cc(OC)c5ncnn5c4)c(C(C)C)c3c2Cl)CC1 [Example 291] has a documented IC50 of 3

In plain terms, Cc1c(-c2[nH]c3cnc(N4CC5(CN(CC(F)(F)F)C5)C4)c(F)c3c2C(C)C)cn2ncnc2c1C [Example 434] has a documented IC50 of 90

In plain terms, COc1cc(-c2[nH]c3cnc(C4CCC(NCC(C)(C)C)CC4)c(F)c3c2C(C)C)cn2ncnc12 (stereo not drawn) [Example 162] has a documented IC50 of 1.3

In plain terms, COc1cc(-c2[nH]c3cnc(C4CCC(N5CC6(COC6)C5)CC4)c(F)c3c2C(C)C)cn2ncnc12 (stereo not drawn) [Example 226] has a documented IC50 of 0.51

In plain terms, COc1cc(-c2[nH]c3cnc(C4CCC(NCC5(C)COC5)C4)cc3c2C(C)C)cn2ncnc12 (stereo not drawn) [Example 59] has a documented IC50 of 15

Values from patent US11912703B2
